Origin of values: patent US20050266509A1

System Under Test: T Cell (Homo sapiens, UniProt P17706)
Sequence (P17706 whole entry): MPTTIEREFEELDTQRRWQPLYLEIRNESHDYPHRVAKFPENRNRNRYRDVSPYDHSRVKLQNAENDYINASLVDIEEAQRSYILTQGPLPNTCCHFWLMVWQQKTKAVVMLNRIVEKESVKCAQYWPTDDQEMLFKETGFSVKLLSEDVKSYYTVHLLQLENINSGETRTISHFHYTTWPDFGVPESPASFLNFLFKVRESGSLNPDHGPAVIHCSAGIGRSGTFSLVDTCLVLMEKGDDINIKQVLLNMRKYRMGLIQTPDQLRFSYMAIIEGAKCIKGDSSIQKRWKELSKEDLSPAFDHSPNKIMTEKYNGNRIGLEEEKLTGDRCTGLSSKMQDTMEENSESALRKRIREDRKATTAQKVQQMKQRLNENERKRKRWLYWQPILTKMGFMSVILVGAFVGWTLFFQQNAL
Measured Attribute: pIC50
The value called pIC50 is obtained by taking minus log10 of the concentration in mol/L.

Query: Give pIC50 for this entry on T Cell (Homo sapiens, UniProt P17706): CCOC(=O)C(=CC1=C/C(=C/N(C)C)C(=O)O1)C(=O)OCC [AGY- 0046293]
Reply: 2.17

---

System Under Test: UniProt:P23467
Sequence (P23467 1643-1997 limits assumed): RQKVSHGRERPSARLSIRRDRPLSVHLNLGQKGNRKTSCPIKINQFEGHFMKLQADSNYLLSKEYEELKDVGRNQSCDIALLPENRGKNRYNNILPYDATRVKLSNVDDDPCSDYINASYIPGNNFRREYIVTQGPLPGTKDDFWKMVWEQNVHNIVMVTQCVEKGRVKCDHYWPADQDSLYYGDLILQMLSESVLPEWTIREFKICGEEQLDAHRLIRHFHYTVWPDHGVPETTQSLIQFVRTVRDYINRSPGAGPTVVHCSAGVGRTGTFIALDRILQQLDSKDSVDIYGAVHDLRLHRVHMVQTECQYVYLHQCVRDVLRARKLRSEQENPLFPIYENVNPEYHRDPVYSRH
Measured Attribute: IC50 (µM)
Form entry: value (µM) — number only.

Query: Give IC50 for this entry on UniProt:P23467: "CCOC(=O)C(=CC1=C/C(=C/N(C)C)C(=O)O1)C(=O)OCC"
Reply: 23.2
